A collection of compounds and their measured IC50
subject of test: human GluN1/GluN2B NMDA receptors (Homo sapiens, UniProt Q13224)
Construct: expressed in transfected cells
Sequence (Q13224 27-1484, other chains not shown): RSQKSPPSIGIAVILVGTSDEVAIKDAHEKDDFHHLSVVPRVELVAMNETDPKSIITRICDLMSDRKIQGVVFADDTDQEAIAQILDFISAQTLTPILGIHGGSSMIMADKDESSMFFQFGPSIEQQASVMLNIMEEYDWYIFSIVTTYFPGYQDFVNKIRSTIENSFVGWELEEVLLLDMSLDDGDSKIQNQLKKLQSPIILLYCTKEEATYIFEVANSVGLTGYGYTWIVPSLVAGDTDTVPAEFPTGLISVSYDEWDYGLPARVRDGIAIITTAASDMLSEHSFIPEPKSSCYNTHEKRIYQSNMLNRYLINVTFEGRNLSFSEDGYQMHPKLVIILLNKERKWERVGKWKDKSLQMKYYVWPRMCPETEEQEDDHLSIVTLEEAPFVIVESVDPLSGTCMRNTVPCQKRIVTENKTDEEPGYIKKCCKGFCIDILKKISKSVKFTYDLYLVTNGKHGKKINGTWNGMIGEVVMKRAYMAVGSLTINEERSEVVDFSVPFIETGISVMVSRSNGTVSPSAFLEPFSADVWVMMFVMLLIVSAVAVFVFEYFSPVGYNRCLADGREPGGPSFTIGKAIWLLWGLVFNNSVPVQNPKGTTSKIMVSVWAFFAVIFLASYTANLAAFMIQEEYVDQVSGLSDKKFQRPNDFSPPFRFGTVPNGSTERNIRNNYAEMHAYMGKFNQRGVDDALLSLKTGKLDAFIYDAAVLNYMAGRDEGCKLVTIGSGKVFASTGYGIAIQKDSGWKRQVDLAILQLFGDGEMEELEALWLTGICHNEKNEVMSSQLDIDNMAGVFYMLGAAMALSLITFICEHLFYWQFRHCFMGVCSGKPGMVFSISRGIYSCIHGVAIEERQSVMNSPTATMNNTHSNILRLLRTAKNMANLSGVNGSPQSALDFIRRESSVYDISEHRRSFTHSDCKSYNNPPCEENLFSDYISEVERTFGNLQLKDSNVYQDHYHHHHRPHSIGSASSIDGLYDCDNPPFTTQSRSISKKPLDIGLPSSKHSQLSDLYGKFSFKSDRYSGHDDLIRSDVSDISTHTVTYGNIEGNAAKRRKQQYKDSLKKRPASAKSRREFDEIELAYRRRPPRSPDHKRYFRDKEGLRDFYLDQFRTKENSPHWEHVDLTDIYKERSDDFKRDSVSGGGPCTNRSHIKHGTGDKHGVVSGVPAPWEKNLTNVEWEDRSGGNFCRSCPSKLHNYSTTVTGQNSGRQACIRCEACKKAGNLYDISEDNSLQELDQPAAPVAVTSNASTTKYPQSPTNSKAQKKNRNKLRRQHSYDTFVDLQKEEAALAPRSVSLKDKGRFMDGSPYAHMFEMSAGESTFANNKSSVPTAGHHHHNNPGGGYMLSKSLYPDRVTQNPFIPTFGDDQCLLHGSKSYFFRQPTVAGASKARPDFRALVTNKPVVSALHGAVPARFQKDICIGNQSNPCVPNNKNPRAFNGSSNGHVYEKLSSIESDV
experiment summary: Cell-based calcium flux (FLIPR) assay on cloned human NR1/NR2B ion channels expressed in mammalian cells (standard and HTS buffer variants)
test context: standard assay buffer (0.5 mM MgCl2 dye loading; 137 mM NaCl, 4 mM KCl assay buffer), human GluN1/GluN2B cells, read-out: NR2B IC50 (μM) standard assay

In plain terms, O=c1[nH]c2ncc(-c3cccc(Cl)c3)cc2n1Cc1cncc(F)c1 has a documented IC50 of 0.013 µM

Sample Cn1c(=O)n(Cc2ncccn2)c2cc(-c3cccc(F)c3)cnc21 ; IC50 observed: 8.71 µM

// field: IC50; key: Cc1c(F)ccc(-c2cnc3c(c2)n(Cc2cnccn2)c(=O)n3C)c1F ; value = 0.084 µM

====

subject of test: human GluN1/GluN2B NMDA receptors (Homo sapiens, UniProt Q13224)
Construct: expressed in transfected cells
experiment summary: Cell-based calcium flux (FLIPR) assay on cloned human NR1/NR2B ion channels expressed in mammalian cells (standard and HTS buffer variants)
test context: standard assay buffer (0.5 mM MgCl2 in dye loading buffer; 137 mM NaCl, 4 mM KCl in assay buffer), human GluN1/GluN2B, read-out: NR2B IC50 (μM) standard assay
readout type: log10 IC50 (log10 of the value in µM)
Please keep in mind that the values are log10 of IC50 expressed in µM.

CN(CCF)C(=O)Cn1c(=O)n(C)c2ncc(-c3ccc(C(F)(F)F)s3)cc21 [Example 577] | -1.19
CCC(=O)Cn1c(=O)[nH]c2ncc(-c3ccc(F)c(F)c3)cc21 [Example 330] | -2.40
O=C(Cn1c(=O)n(CF)c2ncc(-c3ccc(C(F)(F)F)s3)cc21)N1CCCC1 [Example 598] | -0.76
Cn1c(=O)n(Cc2cccnn2)c2cc(-c3ccc(F)c(C(F)F)c3)cnc21 [Example 541] | -1.66
Cn1c(=O)n(Cc2cncc(F)c2)c2cc(-c3ccc(F)c(F)c3F)cnc21 [Example 347] | -0.21

The observed log10 IC50 for Cn1c(=O)n(CC(=O)N2CC(F)(F)C2)c2cc(-c3ccc(F)c(C(F)F)c3)cnc21 [Example 586] when tested with human GluN1/GluN2B NMDA receptors (Homo sapiens, UniProt Q13224) stands at -1.29

The value of log10 IC50 recorded for Cn1c(=O)n(CC(=O)N2CCC2)c2cc(-c3cccc(C(F)(F)F)c3)cnc21 [Example 408] when tested on human GluN1/GluN2B NMDA receptors (Homo sapiens, UniProt Q13224) reads -1.38

log10 IC50 of Cc1cccc(-c2cnc3c(c2)n(Cc2cccnn2)c(=O)n3C)c1 [Example 379] , assay on human GluN1/GluN2B NMDA receptors (Homo sapiens, UniProt Q13224), is -1.48

====

subject of test: human GluN1/GluN2B NMDA receptors (Homo sapiens, UniProt Q05586+Q13224)
Construct: expressed in transfected cells
experiment summary: Cell-based calcium flux (FLIPR) assay on cloned human NR1/NR2B ion channels expressed in mammalian cells (standard and HTS buffer variants);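 also: stable Tet-On inducible cell line, Ca2+ influx triggered by glutamate at about EC40 plus 10 µM glycine, fluorescent dye read-out over 5 min, normalized to control wells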
test context: standard assay buffer (0.5 mM MgCl2 dye loading; 137 mM NaCl, 4 mM KCl assay buffer), human GluN1/GluN2B cells, read-out: NR2B IC50 (μM) standard assay
Each entry below carries its recorded IC50.
I only need the number, in µM, no unit after it.

Summary for this compound, O=c1[nH]c2ncc(-c3cccc(C(F)(F)F)c3)cc2n1CC(O)C1CC1 (racemic) : IC50 is 0.151

Noted for Cc1cc(F)ccc1-c1cnc2c(c1)n(CC1CCO1)c(=O)n2C (racemic) : its IC50 reads 1.23

Sure, the documented IC50 for O=c1[nH]c2ncc(-c3cccc(C(F)(F)F)c3)cc2n1CC1CCCO1 (racemic) is 0.127

get_value(item= O=c1[nH]c2ncc(-c3ccccc3)cc2n1CC1CCN1 (racemic) , readout=IC50) returns 0.397

# IC50 of [2H]C([2H])([2H])OCc1ccc(-c2cnc3c(c2)n(CC(=O)N2CCC2)c(=O)n3C)s1 = 1.22
